molecular target: Peptide 1: Biotin-…-[Tyr(PC)]-acid; assay: scFv ELISA
Sequence (peptide, as listed by the source): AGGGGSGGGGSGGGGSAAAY
REPORTED PROPERTY: OD450 (OD450)

1. PcOxP_DB02_H04 (scFv, V domains shown, scFv in periplasmic extract) VH: EVQLLESGGGLVQPGGSLRLSCAASGFTFSDEYMEWVRQAPGKGLEWVAASRNKANDYTTEYADSVKGRFTISRDNSKNTLYLQMNSLRAEDTAVYYCARDYYGSSYWYFDVWGQGTLVTVSS VL: DIVMTQSPDSLAVSLGERATINCTASESLYSSKHKVVYLAWYQQKPGQPPKLLIYGASNRYIGVPDRFSGSGSGTDFTLTISSLQAEDVAVYYCAQFYFYPLTFGGGTKVEIK | 0.22
2. PcOxP_DB04_B10 (scFv, V domains shown, scFv in periplasmic extract) VH: EVQLLESGGGLVQPGGSLRLSCAASGFTDSDFYMEWVRQAPGKGLEWVAASRNKANGYTTEYADSVKGRFTISRDNSKNTLYLQMNSLRAEDTAVYYCARDYYGSSYWYFDVWGQGTLVTVSS VL: DIVMTQSPDSLAVSLGERATINCTASESLYSSKHKVHYLAWYQQKPGQPPKLLIYGASNRPIGVPDRFSGSGSGTDFTLTISSLQAEDVAVYYCGQFYSYPLTFGGGTKVEIK | 1.05
